# TESTED TARGET: T1, CXCR4 chemokine receptor (human), P61073
# T1 chain: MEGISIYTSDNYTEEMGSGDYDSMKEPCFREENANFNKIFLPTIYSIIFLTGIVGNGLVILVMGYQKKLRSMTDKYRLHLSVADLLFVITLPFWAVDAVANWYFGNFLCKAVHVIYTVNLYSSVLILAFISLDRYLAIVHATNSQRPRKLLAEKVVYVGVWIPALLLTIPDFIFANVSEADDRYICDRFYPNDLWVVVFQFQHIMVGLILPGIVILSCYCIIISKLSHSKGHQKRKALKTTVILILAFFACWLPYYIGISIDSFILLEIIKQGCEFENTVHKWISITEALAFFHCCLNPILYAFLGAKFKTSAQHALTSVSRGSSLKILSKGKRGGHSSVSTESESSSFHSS
RECORDED ENDPOINT: pIC50
// pIC50 here means minus log10 of the molar concentration (mol/L)

Consider the binder shown here: LGASWHRPDKCCLGYQKRPLP (modifications not checked) [V1 peptide (vMIP-II, 1-21)] What is its recorded pIC50?
6.72

Hey, just so you know, these numbers are from patent US20030220482A1.
